Here, each record is paired with measured ΔTm SLK data.
Target: SLK (Homo sapiens)
Construct: purchased in-house DSF panel (SGC Frankfurt)
Experiment: DSF
Assay type: binding
Field: numeric (°C). Do not append units.

| compound | measuredOn | ΔTm SLK (°C) |
| --- | --- | --- |
| CC(C)OC(=O)c1cc(Nc2ccnc(NCc3ccc(NC(=O)OC(C)(C)C)cc3)n2)n[nH]1 [42d] | SLK (Homo sapiens) | -0.6 |

Now for another entry.
Please report the recorded ΔTm SLK for CN[C@@H]1C[C@H]2O[C@@](C)([C@@H]1OC)n1c3ccccc3c3c4c(c5c6ccccc6n2c5c31)C(=O)NC4 [staurosporine, reference compound] . 18.0
